# target of assay: T1, human CEACAM5 expressed on the surface of tumor cells (human, UniProt P06731 35-685)
# T1 sequence: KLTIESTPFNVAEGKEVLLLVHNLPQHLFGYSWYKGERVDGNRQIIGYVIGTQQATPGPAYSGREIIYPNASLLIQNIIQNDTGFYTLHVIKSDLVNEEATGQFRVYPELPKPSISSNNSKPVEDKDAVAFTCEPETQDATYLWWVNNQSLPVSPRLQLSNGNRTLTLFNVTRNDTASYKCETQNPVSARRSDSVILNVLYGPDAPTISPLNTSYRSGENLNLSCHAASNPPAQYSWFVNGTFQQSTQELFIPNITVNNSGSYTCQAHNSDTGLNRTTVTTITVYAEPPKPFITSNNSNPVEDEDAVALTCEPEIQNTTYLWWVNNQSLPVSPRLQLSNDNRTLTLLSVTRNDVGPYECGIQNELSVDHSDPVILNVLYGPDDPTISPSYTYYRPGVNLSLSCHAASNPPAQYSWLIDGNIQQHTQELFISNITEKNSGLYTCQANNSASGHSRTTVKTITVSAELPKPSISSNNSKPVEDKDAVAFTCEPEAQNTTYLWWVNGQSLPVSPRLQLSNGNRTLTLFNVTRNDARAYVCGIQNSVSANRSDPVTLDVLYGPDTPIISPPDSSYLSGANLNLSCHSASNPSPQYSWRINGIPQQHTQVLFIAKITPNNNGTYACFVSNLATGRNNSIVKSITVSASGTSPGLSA
# test protocol: cell-based or functional assay
One threshold, 0.5 nM, splits the recorded Cytotoxic activity IC50 (nM) on MKN45 cells values: lower ones are MET, equal or higher ones are NOT MET.

Before answering, review these 4 worked examples.
binder	assigned category
MAb4-SPDB-DM4 (other, maytansinoid DM4 conjugated through SPDB linker; attachment residues not stated) VH: EVQLVESGGGLVKPGGSLKLSCAASGFTFSSYDMSWVRQTPEKRLEWVAFISSYGGRTYYADTVKGRFTISRDNAKNTLYLQMSSLKSEDTAMFYCAAHYFGTSGPFAYWGQGTLVTVSA VL: DIQMTQSPASLSASVGETVTITCRASENIYSYFAWYQQKQGKSPQLLVYNAKILAEGVPSRFSGSGSGTQFSLKINSLQPEDFGTYYCQHHYGIPFTFGSGTKLELK	NOT MET
MAb5-SPDB-DM4 (other, maytansinoid DM4 conjugated through SPDB linker; attachment residues not stated) VH: ELQLVESGGVLVKPGGSLKLSCAASGFAFSSYDMSWVRQTPEKRLEWVTYINSGGGITYYPDTVKGRFTISRDNARNTLYLQMSSLKSEDTAIYYCTAHYFGSSGPFAYWGQGTLVTVSA VL: DIQMTQSPASLSASVGETVTITCRASENIYSYLAWYQQKQGKSPQLLVYNAKTLTEGVPSRFSGSGSGTQFSLKINSLQPEDFGSYYCQHHYGTPFTFGSGTKLEIK	MET
MAb2-SPDB-DM4 (other, maytansinoid DM4 conjugated through SPDB linker; attachment residues not stated) VH: EVQLQESGGVLVKPGGSLKLSCAASGFVFSSYDMSWVRQTPEKRLEWVAYISSGGGITYFPDTVQGRFTVSRDNAKNTLYLQMNSLKSEDTAIYYCAAHYFGSSGPFAYWGQGTLVTVSA VL: DIQMTQSPASLSASVGETVTITCRASENIFSYLAWYQQKQGKSPQLLVYNTKTLAEGVPSRFSGSGSGTQFSLKINSLQPEDFGSYYCQHHYGTPFTFGSGTKLEIK	MET
MAb1-SPDB-DM4 (other, maytansinoid DM4 conjugated through SPDB linker; attachment residues not stated) VH: EVMLVESGGGLVKPGGSLKLSCAASGFTFSSYAMSWVRQTPEKRLEWVATISSGGSYIYYLDSVKGRFTISRDNAKNTLYLQMSSLRSEDTAMYYCARPAYYGNPAMDYWGQGTSVTVSS VL: DILMTQSQKFMSTSVGDRVSVTCKASQNVGTNVAWYQQKPGQSPKPLIYSASYRYSGVPDRFTGSGSGTDFTLTISNVQSEDLAEYFCQQYNSYPLYTFGGGTKLEIK	NOT MET

is_below(Cytotoxic activity IC50 (nM) on MKN45 cells, 0.5 nM) for MAb3-SPDB-DM4 (other, maytansinoid DM4 conjugated through SPDB linker; attachment residues not stated) VH: EVKLVESGGGLVKPGGSLTLPCAASGFTFSRYAMSWVRQTPEKRLEWVASISSGGDTYYPDSVKGRFTVSRDNARNILFLQMSSLRSEDTGMYYCARVNYYDSSFLDWWGQGTTLTVSS VL: DIVMTQSQRFMSTLEGDRVSVTCKASQNVGTNVAWYQQKPGQSPKALIYSASYRYSGVPDRFTGSGSGTDFTLTISNVQSEDLAEYFCQQYNNYPLYTFGGGTKLEIK ?
NOT MET
